Data origin, for the record: ChEMBL document CHEMBL4406853

molecular target: UniProt:P35372; assay: Inhibition of mu opioid receptor (unknown origin) expressed in human […] cells assessed as increase in beta arrestin recruitment; assay type: functional, cell-based
measure: pEC50
Please treat pEC50 as minus the base-10 logarithm of the molar concentration.

Challenge: // Input: CCOC(=O)C1(CCc2ccccc2)CCN(Cc2ccc(NC(C)=O)cc2)CC1 . Output its pEC50 only.
Response given: 5.08

* * *

target: Kappa-type opioid receptor (Homo sapiens); experiment: Inhibition of kappa-opioid receptor (unknown origin) by [35S]-GTPgammaS binding assay; assay type: functional
Sequence (P41145 whole entry): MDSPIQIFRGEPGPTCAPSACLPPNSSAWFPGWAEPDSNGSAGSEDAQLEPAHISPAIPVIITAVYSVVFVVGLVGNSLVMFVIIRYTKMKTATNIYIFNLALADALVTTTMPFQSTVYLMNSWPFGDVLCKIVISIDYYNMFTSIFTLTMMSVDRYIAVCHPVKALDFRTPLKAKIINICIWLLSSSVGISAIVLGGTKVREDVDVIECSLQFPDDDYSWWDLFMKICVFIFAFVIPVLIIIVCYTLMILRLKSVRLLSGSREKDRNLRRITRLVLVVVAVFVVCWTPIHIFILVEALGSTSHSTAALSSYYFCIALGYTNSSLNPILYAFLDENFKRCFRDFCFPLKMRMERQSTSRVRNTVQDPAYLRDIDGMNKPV
measure: pEC50
Please treat pEC50 as minus the base-10 logarithm of the molar concentration.

Challenge: Param request: pEC50 | system Kappa-type opioid receptor (Homo sapiens) | item CCC1(C)CC(CCNCc2ccccc2O)(c2ccccc2OC)CCO1 (stereo unspecified)
Response given: 5.47

* * *

biological target: Delta-type opioid receptor (Homo sapiens); test: Inhibition of delta opioid receptor (unknown origin) in presence of DAMGO by [35S]-GTPgammaS binding assay; assay type: functional
Sequence (P41143 whole entry): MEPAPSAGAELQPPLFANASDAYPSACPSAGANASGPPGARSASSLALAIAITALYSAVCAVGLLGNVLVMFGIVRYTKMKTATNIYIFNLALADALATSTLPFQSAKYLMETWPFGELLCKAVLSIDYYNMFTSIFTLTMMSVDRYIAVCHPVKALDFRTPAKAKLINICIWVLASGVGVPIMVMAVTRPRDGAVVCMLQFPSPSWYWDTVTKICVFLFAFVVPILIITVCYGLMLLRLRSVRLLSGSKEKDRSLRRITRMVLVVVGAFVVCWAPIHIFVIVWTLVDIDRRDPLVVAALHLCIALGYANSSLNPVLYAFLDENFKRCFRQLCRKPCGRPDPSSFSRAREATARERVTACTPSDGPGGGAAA
measure: pIC50
Please treat pIC50 as minus the base-10 logarithm of the molar concentration.

Challenge: Param request: pIC50 | system Delta-type opioid receptor (Homo sapiens) | item CC[C@@H]1CN2CC[C@]3(Nc4cccc(OC)c4C3=O)[C@@H]2C[C@@H]1/C(=C\OC)C(=O)OC
Response given: 8.77

* * *

biological target: Mu-type opioid receptor (Homo sapiens, UniProt P35372); assay: Inhibition of mu opioid receptor (unknown origin) in presence of DPDPE by [35S]-GTPgammaS binding assay; type: functional
Sequence (P35372 whole entry): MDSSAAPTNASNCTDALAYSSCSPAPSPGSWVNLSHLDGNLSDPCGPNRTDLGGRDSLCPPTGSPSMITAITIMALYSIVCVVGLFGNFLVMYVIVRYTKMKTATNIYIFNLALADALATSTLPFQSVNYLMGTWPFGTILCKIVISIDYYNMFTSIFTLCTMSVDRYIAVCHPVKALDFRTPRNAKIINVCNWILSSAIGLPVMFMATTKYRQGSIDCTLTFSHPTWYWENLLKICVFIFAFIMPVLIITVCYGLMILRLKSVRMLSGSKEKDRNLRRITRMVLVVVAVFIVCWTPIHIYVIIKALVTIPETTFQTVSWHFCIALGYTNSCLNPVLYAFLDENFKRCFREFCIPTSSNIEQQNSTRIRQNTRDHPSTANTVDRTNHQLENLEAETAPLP
measure: IC50 (nM)
Numeric answer only, unit nM assumed.

Challenge: // Input: CC[C@@H]1CN2CC[C@]3(Nc4cccc(OC)c4C3=O)[C@@H]2C[C@@H]1/C(=C\OC)C(=O)OC . Output its IC50 only.
Response given: 0.282

* * *

molecular target: Kappa-type opioid receptor (Homo sapiens); assay: Partial agonist activity at kappa opioid receptor (unknown origin) expressed in CHO cells by [35S]-GTPgammaS binding assay; format: functional, cell-based
measure: pEC50
Please treat pEC50 as minus the base-10 logarithm of the molar concentration.

Challenge: Param request: pEC50 | system Kappa-type opioid receptor (Homo sapiens) | item CCC1CC2CC3c4[nH]c5ccc(O)cc5c4CCN(C2)C13 (stereo unspecified)
Response given: 5.06

* * *

target: Delta-type opioid receptor (Homo sapiens); assay: Inhibition of delta opioid receptor (unknown origin) expressed in human […] cells by [35S]-GTPgammaS binding assay; format: functional, cell-based
measure: EC50 (nM)
Numeric answer only, unit nM assumed.

Challenge: // Input: CCOC(=O)C1(CCc2ccccc2)CCN(Cc2ccc(NC(C)=O)cc2)CC1 . Output its EC50 only.
Response given: 54

* * *

biological target: UniProtKB P35372; test: Inhibition of mu opioid receptor (unknown origin) in presence of DPDPE by [35S]-GTPgammaS binding assay; type: functional
Exercise: state measured EC50 for each of the compounds provided.
Numeric answer only, unit nM assumed.

Challenge: // Input: CC[C@@H]1CN2CC[C@]3(Nc4cccc(-c5ccccc5)c4C3=O)[C@@H]2C[C@@H]1/C(=C\OC)C(=O)OC . Output its EC50 only.
Response given: 1.4

Challenge: // Input: CC[C@@H]1CN2CC[C@]3(Nc4cccc(OC)c4C3=O)[C@@H]2C[C@@H]1/C(=C\OC)C(=O)OC . Output its EC50 only.
Response given: 1.7

* * *

target: Kappa-type opioid receptor (Homo sapiens); experiment: Inhibition of kappa opioid receptor (unknown origin) assessed as effect on ERK1 phosphorylation
measure: pEC50
Please treat pEC50 as minus the base-10 logarithm of the molar concentration.

Challenge: // Input: Ic1ccc(CSc2nnc(-c3ccccn3)n2Cc2ccccn2)cc1 . Output its pEC50 only.
Response given: 6.97

* * *

Exercise: state measured pEC50 for each of the compounds provided.
target: UniProt:P35372; assay: Inhibition of mu opioid receptor (unknown origin) expressed in HEK293 cells assessed as inhibition of forskolin-stimulated intracellular cAMP accumulation preincubated for 30 mins followed by forskolin-stimulation and measured after 60 mins; type: functional, cell-based
pEC50: −log10 of the molar value.

Challenge: // Input: CN(C)[C@H](CNC(=O)NCCc1ccsc1)Cc1cccc2ccccc12 . Output its pEC50 only.
Response given: 6.69

Challenge: // Input: CN(C)[C@H](CNC(=O)NCCc1ccsc1)Cc1ccc2ccccc2c1 . Output its pEC50 only.
Response given: 6.61 to 7.28

Challenge: // Input: C[C@H](Cc1ccsc1)NC(=O)NC[C@H](Cc1ccc2ccccc2c1)N(C)C . Output its pEC50 only.
Response given: 7.04 to 7.28

Challenge: // Input: C[C@@H](Cc1ccsc1)NC(=O)NC[C@H](Cc1ccc2ccccc2c1)N(C)C . Output its pEC50 only.
Response given: 7.04 to 7.28

Challenge: // Input: CN(C)[C@H](CNC(=O)NCCc1cccs1)Cc1cccc2ccccc12 . Output its pEC50 only.
Response given: 7.04 to 7.28

Challenge: // Input: C[C@@H](Cc1ccsc1)NC(=O)NC[C@H](Cc1cccc2ccccc12)N(C)C . Output its pEC50 only.
Response given: 6.34

* * *

molecular target: Mu-type opioid receptor (Homo sapiens); assay: Displacement of [3H]DAMGO from mu opioid receptor (unknown origin) expressed in HEK293 cells after 1 hr by liquid scintillation counting; type: cell-based
pEC50: −log10 of the molar value.
measure: pEC50

Challenge: // Input: C=C(C(N)=O)C(NC(=O)[C@H](Cc1ccccc1)NC(=O)[C@@H](C)N(C)C(=O)[C@@H](N)Cc1ccc(O)cc1)c1ccccc1 (stereo partly specified) . Output its pEC50 only.
Response given: 8.40

Challenge: // Input: C=C(C(N)=O)C(NC(=O)[C@H](Cc1c[nH]c2ccccc12)NC(=O)[C@@H](C)N(C)C(=O)C(N)Cc1c(C)cc(O)cc1C)c1ccco1 (stereo partly specified) . Output its pEC50 only.
Response given: 11.29 to 11.75

Challenge: // Input: C=C(C(N)=O)C(NC(=O)[C@H](Cc1ccccc1)NC(=O)[C@@H](C)N(C)C(=O)C(N)Cc1c(C)cc(O)cc1C)c1ccco1 (stereo partly specified) . Output its pEC50 only.
Response given: 11.29 to 11.75

Challenge: // Input: C=C(C(N)=O)C(NC(=O)[C@H](Cc1c[nH]c2ccccc12)NC(=O)[C@@H](C)N(C)C(=O)[C@@H](N)Cc1ccc(O)cc1)c1ccco1 (stereo partly specified) . Output its pEC50 only.
Response given: 7.41 to 8.84

Challenge: // Input: C=C(C(N)=O)C(NC(=O)[C@H](Cc1c[nH]c2ccccc12)NC(=O)[C@@H](C)N(C)C(=O)C(N)Cc1c(C)cc(O)cc1C)c1ccccc1 (stereo partly specified) . Output its pEC50 only.
Response given: 11.29 to 11.75

Challenge: // Input: C=C(C(N)=O)C(NC(=O)[C@H](Cc1ccccc1)NC(=O)[C@@H](C)N(C)C(=O)C(N)Cc1c(C)cc(O)cc1C)c1ccccc1 (stereo partly specified) . Output its pEC50 only.
Response given: 11.29 to 11.75

* * *

molecular target: Mu-type opioid receptor (Homo sapiens); test: Inhibition of mu opioid receptor (unknown origin) in presence of DAMGO by [35S]-GTPgammaS binding assay; assay type: functional
measure: pIC50
Please treat pIC50 as minus the base-10 logarithm of the molar concentration.

Challenge: // Input: CC[C@@H]1CN2CC[C@]3(Nc4cccc(OC)c4C3=O)[C@@H]2C[C@@H]1/C(=C\OC)C(=O)OC . Output its pIC50 only.
Response given: 8.18

* * *

biological target: Mu-type opioid receptor (Homo sapiens, UniProt P35372); experiment: Inhibition of mu opioid receptor (unknown origin)
Non-standard residues stand in square brackets, D forms with d. Residues, ends and D or L forms follow the SMILES beside them. ξ: configuration not given here. ξP = O=C(O)C1CCCN1
measure: IC50 (µM)
Numeric answer only, unit µM assumed.

Challenge: // Input: CC(C)C[C@H](NC(=O)[C@H](CC(=O)O)NC(=O)[C@H](CC(C)C)NC(=O)C1CCCN1C(=O)[C@@H](N)Cc1ccc(O)cc1)C(=O)O (some centres not stated) (H-Y[ξP]LDL-OH) . Output its IC50 only.
Response given: 1090

* * *

target: Kappa-type opioid receptor (Cavia porcellus, UniProt P41144); test: Agonist activity at kappa opioid receptor in guinea pig brain membranes by [35S]-GTPgammaS binding assay
Sequence (P41144 whole entry): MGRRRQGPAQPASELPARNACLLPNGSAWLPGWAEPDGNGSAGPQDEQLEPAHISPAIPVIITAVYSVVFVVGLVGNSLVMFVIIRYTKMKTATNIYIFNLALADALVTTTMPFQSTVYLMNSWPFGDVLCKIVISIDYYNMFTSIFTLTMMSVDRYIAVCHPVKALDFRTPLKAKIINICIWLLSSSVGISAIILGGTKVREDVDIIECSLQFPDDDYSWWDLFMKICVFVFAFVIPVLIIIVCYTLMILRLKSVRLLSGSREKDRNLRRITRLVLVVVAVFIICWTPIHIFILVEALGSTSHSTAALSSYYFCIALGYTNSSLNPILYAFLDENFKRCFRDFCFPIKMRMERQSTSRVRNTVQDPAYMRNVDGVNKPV
Exercise: state measured EC50 for each of the compounds provided.
Numeric answer only, unit nM assumed.

Challenge: Param request: EC50 | system Kappa-type opioid receptor (Cavia porcellus, UniProt P41144) | item CC[C@@H]1CN2CCc3c([nH]c4cccc(OC)c34)[C@@H]2C[C@@H]1/C(=C\OC)C(=O)OC
Response given: 230

Challenge: Param request: EC50 | system Kappa-type opioid receptor (Cavia porcellus, UniProt P41144) | item CC[C@@H]1CN2CC[C@@]3(O)C(=Nc4cccc(OC)c43)[C@@H]2C[C@@H]1/C(=C\OC)C(=O)OC
Response given: 53
